IC50 for Autotaxin (Homo sapiens, UniProt Q13822), merged from several publications.
EXPERIMENTAL_ENDPOINT: IC50 (nM)

Cc1cc(C(C)(C)C)c(OCc2n[nH]c3cnccc23)cc1C#N    2
O=C(CCc1ccc(OC(F)(F)F)cc1)N1C[C@@H]2CN(C(=O)c3ccc4[nH]nnc4c3)C[C@@H]2C1    114
CC(C)Cn1c(C(=O)N2C[C@@H]3[C@H]4CN(C(=O)c5ccc6[nH]nnc6c5)C[C@H]4[C@@H]3C2)cc2ccccc21    159

I: O=C(OCc1cc(Cl)cc(Cl)c1)N1C[C@@H]2CN(C(=O)c3ccc4[nH]c(=O)oc4c3)C[C@@H]2C1
II: CS(=O)(=O)c1cc(COC(=O)N2CCC3(CC2)CN(S(=O)(=O)c2ccc4[nH]c(=O)oc4c2)C3)cc(C(F)(F)F)c1
Query block: # min-compare on IC50 between I and II Output the label that corresponds to your choice.
Result block: I

---

pIC50: −log10 of the molar value.
Multiple publications report pIC50 for Autotaxin (Homo sapiens, UniProt Q13822); what follows is a combined list.

Some solved cases for reference:
O=C(CCc1cc(Cl)cc(Cl)c1)N1CC2(CC(NS(=O)(=O)c3ccc4[nH]c(=O)oc4c3)C2)C1    7.23
Cc1cccc(C(=O)N[C@@H](C(=O)N2CCC3(CC2)C(=O)N(C)CN3c2ccc(C#N)cc2)C(C)C)c1F    > 6.30

Query block: Lab request: please report pIC50 under test system Autotaxin (Homo sapiens, UniProt Q13822) for N#CCn1c(C(=O)N2C[C@@H]3[C@H]4CN(C(=O)c5ccc6[nH]nnc6c5)C[C@H]4[C@@H]3C2)cc2ccccc21
Result block: 6.89

Query block: Param readout= pIC50; system= Autotaxin (Homo sapiens, UniProt Q13822); entry= CC(C)[C@@H](NC(=O)c1cc(Cl)cc(C(F)(F)F)c1)C(=O)N1CCC2(CC1)C(=O)N(C)CN2c1ccc(C(=O)O)cc1 ; returns value.
Result block: > 6.30

Query block: Look up pIC50 with Autotaxin (Homo sapiens, UniProt Q13822) for this compound: Cc1cc(OCc2n[nH]c3nc(N(C)CCO)ccc23)c(C(C)(C)C)cc1Cl
Result block: 8.22

Query block: GET /values?readout=pIC50&system=Autotaxin (Homo sapiens, UniProt Q13822)&item= O=C(OCc1cc(Cl)cc(Cl)c1)N1C[C@@H]2CN(C(=O)c3ccc(O)cn3)C[C@@H]2C1
Result block: 6.53

Query block: What reported pIC50 corresponds to COc1ccc2cc(C(=O)N3C[C@@H]4[C@H](C3)[C@H]3CN(C(=O)c5ccc6[nH]nnc6c5)C[C@@H]43)ccc2c1 on Autotaxin (Homo sapiens, UniProt Q13822)?
Result block: 6.92

---

Note to self: these molecules have IC50 reported for Autotaxin (Homo sapiens, UniProt Q13822) in various publications.

Consider the following illustrative entries.
CC(C)[C@@H](NC(=O)c1cc(C(F)(F)F)ccc1F)C(=O)N1CCC2(CC1)C(=O)N(C)C(=O)N2C(C)c1ccccc1 (stereo partly shown)    500 to 1000 nM
O=C(c1cnc(NCc2cc(Cl)cc(Cl)c2)nc1)N1CCC12COC2    100 to 1000 nM
CCCCCC1CN(CC(=O)N2CCCC[C@H]2C)C(=O)c2cc(-c3ccc(Cl)cc3)nn21 (stereo partly shown)    100 to 1000 nM

Let us examine a further case.
Query block: For the record CCCCC1CN(CC(=O)NCCOCCO)C(=O)c2cc(-c3ccc(Cl)cc3)nn21 (stereo not shown) , what value of IC50 is listed for Autotaxin (Homo sapiens, UniProt Q13822)?
Result block: 100 to 1000 nM

---

pIC50: −log10 of the molar value.
Kindly find below pIC50 information for Autotaxin (Homo sapiens, UniProt Q13822) taken from the literature.

Worked cases, answers included:
CCCCCC1CN(Cc2ccccc2OCCCN(C)C)C(=O)c2cc(-c3ccc(Cl)cc3)nn21 (stereo not shown)    6.00 to 7.00
Cc1ccc2c(c1)CC(Nc1ncc(C(=O)N3CCC34COC4)cn1)C2 (stereo not shown)    6.00 to 7.00
Cc1cc(OCc2n[nH]c(=O)n2C)c(-c2ncccn2)cc1Cl    6.67
O=C(c1cnc(NCc2cccc(S(F)(F)(F)(F)F)c2)nc1)N1CCC12COC2    6.00 to 7.00
CCCCCC1CN(Cc2ccccc2C#N)C(=O)c2cc(-c3ccc(Cl)cc3)nn21 (stereo not shown)    ≤ 6.00

Query block: Quick one: pIC50 of CCC(c1ccc2c(C(F)F)c(O[C@H]3CC[C@@H](C)CC3)ccc2c1)N1CC(CC(=O)O)C1 (relative stereo) ?
Result block: ≥ 7.00

Query block: Entry CON(C)C(=O)Cn1c(C2CC2)c(Sc2cccc(C(=O)O)c2F)c2ccc(Cl)c(F)c21 has what pIC50?
Result block: 5.52 to 6.30

---

pIC50: −log10 of the molar value.
Here, molecules appear alongside pIC50 reported for Autotaxin (Homo sapiens) in the literature.

Cc1c(Sc2cccc(C(=O)O)c2)c2ccc(Cl)c(F)c2n1CC(=O)N1CCC(Cc2ccc(C(F)(F)F)cc2)C1 (stereo not drawn)    5.52 to 6.30

Query block: Fill in the blank: the reported pIC50 of CC(=O)Nc1cc(C#N)ccc1-c1cc2n(n1)[C@@H](C)CN(Cc1ccc(C#N)cc1)C2=O is ____.
Result block: > 8.00

Query block: If you can, please state the reported pIC50 value of CC(c1ccc2c(C(F)(F)F)c(O[C@H]3CC[C@@H](C)CC3)ccc2c1)N1CCC(C(=O)O)CC1 (relative stereo) .
Result block: ≥ 6.30

---

Header: IC50 / Autotaxin (Homo sapiens, UniProt Q13822) / multiple publications

# count of solved cases: 5
Cc1c(Sc2cccc(C(=O)O)c2)c2ccc(Cl)c(F)c2n1CC(=O)N1CCC(Cc2ccc(F)cc2)CC1    0.5 to 3 µM
CC[C@H]1CC[C@@H](Oc2ccc3nc(NC4C5CCCC4CC(C(=O)O)C5)ccc3c2C(F)(F)F)CC1 (stereo partly shown)    ≤ 0.1 µM
Cc1c(Sc2cccc(C(=O)O)c2)c2ccc(Cl)c(F)c2n1CC(=O)NC(C)C    ≤ 0.5 µM
O=C1OC[C@@H]2Cc3c(n(Cc4ccc(F)cc4)c4ccccc34)CN12    < 0.5 µM
C[C@H]1CN(Cc2ccc(C#N)cc2)C(=O)c2cc(-c3ccc(Cl)cc3N)nn21    ≥ 1 µM

Query block: // map CN1CC2(CCN2C(=O)c2cnc(NCc3cc(OC(F)(F)F)cc(C4CC4)c3)nc2)C1 to recorded IC50 (system: Autotaxin (Homo sapiens, UniProt Q13822))
Result block: < 0.1 µM

Query block: So what IC50 did CCCn1cc(-n2c(C3CC3)c(Sc3cccc(C(=O)O)c3F)c3ccc(Cl)c(F)c32)cn1 get with Autotaxin (Homo sapiens, UniProt Q13822)?
Result block: < 0.5 µM

---

// merged dataset of pIC50 values, system = Autotaxin (Homo sapiens, UniProt Q13822), multiple refs
pIC50: −log10 of the molar value.

For orientation, consider the following solved cases.
Cc1c(Sc2cccc(C(=O)O)c2)c2ccc(Cl)c(F)c2n1CC(=O)NCC(F)(F)F    ≥ 6.30
CC(C)[C@@H](NC(=O)c1cc(OC(F)(F)F)ccc1F)C(=O)N1CCC(C)(Nc2ccc(C(=O)O)cc2)CC1    6.30 to 7.00
CC(C)c1cc(C#N)ccc1OCC(=O)N1CCC2(CC1)CN(C(=O)C1CCc3[nH]nnc3C1)C2 (centres unmarked)    7.13
O=C(/C=C/c1cc(Cl)cc(Cl)c1)N1CC[C@@H]2CN(C(=O)c3ccc4[nH]nnc4c3)C[C@@H]2CC1    8.70
CCCCCC1CN(CC(=O)N2CCCC2)C(=O)c2cc(-c3ccc(Cl)cc3)nn21 (centres unmarked)    6.00 to 7.00

Query block: Given the entry CCCCCC1CN(CC(=O)N2CCCC(C)C2)C(=O)c2cc(-c3ccc(Cl)cc3)nn21 (centres unmarked) , report its measured pIC50.
Result block: 6.00 to 7.00

Query block: What measured pIC50 goes with CCCCCC1CN(CC(=O)N2CCC[C@H](C)C2)C(=O)c2cc(-c3ccc(Cl)cc3)nn21 (some centres unmarked) ?
Result block: 7.00 to 8.00

Query block: Param item = O=C(OCc1cccc(C(O)C(F)(F)F)c1)N1C[C@@H]2CN(C(=O)c3ccc4[nH]nnc4c3)C[C@@H]2C1 (some centres unmarked) ; retrieve measured pIC50.
Result block: 5.46

---

Reported pIC50 against Autotaxin (Homo sapiens, UniProt Q13822), gathered from multiple publications, appears below.
pIC50: −log10 of the molar value.

Record excerpt, results attached:
Cc1c(Sc2cccc(C(=O)O)c2)c2ccc(Cl)c(F)c2n1CC(=O)N1CCC2(CC1)CC2C(=O)N1CCCC1 (stereo not shown)    5.52 to 6.30
Cc1c(Sc2cccc(C(=O)O)c2)c2ccc(Cl)c(F)c2n1CC(=O)N1CC2(CCCC2)c2ccccc21    ≥ 6.30
CCCCCC1CN(Cc2cccc(CC(=O)OCC)c2)C(=O)c2cc(-c3ccc(Cl)cc3)nn21 (stereo not shown)    ≤ 6.00
CCCCC1CN(C2CCCCC2=O)C(=O)c2cc(-c3ccc(Cl)cc3)nn21 (stereo not shown)    6.00 to 7.00
COC(=O)Nc1cc(Cl)ccc1-c1cc2n(n1)[C@@H](C)CN(CC(=O)N(C)CC#N)C2=O    7.00 to 8.00
O=C(O)CCN1C(=O)[C@@H]2Cc3c(n(Cc4ccc(F)nc4)c4ccccc34)CN2C1=O    > 6.30

Query block: Field: pIC50 (Autotaxin (Homo sapiens, UniProt Q13822)). Entry: CC(NC1CC(C(=O)O)C1(C)C)c1ccc2c(C(F)(F)F)c(O[C@H]3CC[C@@H](C(F)(F)F)CC3)ccc2n1 (stereo partly shown)
Result block: ≥ 6.60
